Origin of the recorded values: paper PMC4336329

biological target: human ether-à-go-go-related gene (hERG) potassium channel (human); test: primary screen, population patch clamp on CHO cells stably expressing hERG; higher = less effect of the substance
Sequence (Q12809 whole entry, looked up): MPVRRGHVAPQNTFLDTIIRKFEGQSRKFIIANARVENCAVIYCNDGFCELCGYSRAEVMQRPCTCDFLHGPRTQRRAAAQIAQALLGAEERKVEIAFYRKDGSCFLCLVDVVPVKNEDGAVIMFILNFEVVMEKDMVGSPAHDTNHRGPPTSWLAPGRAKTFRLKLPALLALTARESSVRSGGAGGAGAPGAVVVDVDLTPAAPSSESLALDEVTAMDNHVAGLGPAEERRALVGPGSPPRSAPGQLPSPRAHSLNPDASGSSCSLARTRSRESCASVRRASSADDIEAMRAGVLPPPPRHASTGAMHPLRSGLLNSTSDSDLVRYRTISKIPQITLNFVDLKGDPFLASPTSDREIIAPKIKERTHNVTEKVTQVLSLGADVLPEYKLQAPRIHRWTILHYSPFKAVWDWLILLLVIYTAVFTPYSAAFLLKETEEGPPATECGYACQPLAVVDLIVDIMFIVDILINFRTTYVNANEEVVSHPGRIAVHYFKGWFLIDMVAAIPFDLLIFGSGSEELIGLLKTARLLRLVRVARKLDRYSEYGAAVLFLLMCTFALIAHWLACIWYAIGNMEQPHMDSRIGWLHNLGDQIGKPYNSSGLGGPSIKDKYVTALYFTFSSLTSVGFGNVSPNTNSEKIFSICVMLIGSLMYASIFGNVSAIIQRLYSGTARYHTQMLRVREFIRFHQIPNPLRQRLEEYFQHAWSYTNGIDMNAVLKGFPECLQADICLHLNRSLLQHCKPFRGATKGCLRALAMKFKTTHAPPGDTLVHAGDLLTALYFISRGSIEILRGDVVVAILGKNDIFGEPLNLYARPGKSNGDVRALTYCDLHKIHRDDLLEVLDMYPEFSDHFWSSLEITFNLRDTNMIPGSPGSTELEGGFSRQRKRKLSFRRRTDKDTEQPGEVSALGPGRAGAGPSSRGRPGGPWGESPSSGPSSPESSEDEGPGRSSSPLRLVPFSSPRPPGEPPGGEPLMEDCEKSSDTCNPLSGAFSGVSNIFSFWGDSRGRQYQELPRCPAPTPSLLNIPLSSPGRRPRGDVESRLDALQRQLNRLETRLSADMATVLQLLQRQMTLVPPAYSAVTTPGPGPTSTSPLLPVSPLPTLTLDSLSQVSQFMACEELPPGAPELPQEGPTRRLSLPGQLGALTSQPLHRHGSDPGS
Out of some 310,000 compounds screened, about 2,200 (0.71%) showed an effect of 50% or more. Effects have a minus sign here. Many of the other results were omitted from the sample, so strong results are more common in it than they were.
In this section we review reported hERG current change (%, negative = inhibition) at 1uM values for a set of compounds.
observable: hERG current change (%, negative = inhibition) at 1uM

smiles-entry	study-target	result
COCCOc1cnn(-c2cc(Oc3ccc(C)cc3)ncn2)c(=O)c1Cl	human ether-à-go-go-related gene (hERG) potassium channel (human)	7.88%
Cc1c(CCC(=O)N2CCC[C@H]2C(=O)O)c(=O)oc2c(C)c3oc4c(c3cc12)CCCC4	human ether-à-go-go-related gene (hERG) potassium channel (human)	21.1%
Cc1ccc(NC(=O)c2ccc(CSc3nnc(C)s3)cc2)c(C)c1	human ether-à-go-go-related gene (hERG) potassium channel (human)	9.08%
CCCCn1c(N)c(N(C)C(=O)c2ccc(Br)o2)c(=O)[nH]c1=O	human ether-à-go-go-related gene (hERG) potassium channel (human)	7.35%
Cc1cc(/C=N/NC(N)=S)c(C)n1-c1ccc(Cl)cc1	human ether-à-go-go-related gene (hERG) potassium channel (human)	1.13%
O=C(Cc1cccs1)NCc1cccc(Cl)c1	human ether-à-go-go-related gene (hERG) potassium channel (human)	9.08%
O=C(NCC1CCCCC1)c1ccc([N+](=O)[O-])cc1	human ether-à-go-go-related gene (hERG) potassium channel (human)	8.06%
COc1ccc(CC(=O)Nc2ccc(-c3noc(-c4ccccc4OC)n3)cc2)cc1	human ether-à-go-go-related gene (hERG) potassium channel (human)	-11.7%
Cc1nn(Cc2ccccc2)c(C)c1NC(=O)CSc1nc2c(c(C(F)(F)F)n1)CCc1ccccc1-2	human ether-à-go-go-related gene (hERG) potassium channel (human)	2.11%
O=C(NCC1CCN(C(=O)c2cccc([N+](=O)[O-])c2)CC1)c1cccc([N+](=O)[O-])c1	human ether-à-go-go-related gene (hERG) potassium channel (human)	-5.98%
CCc1ccc(C(=O)NNc2cc(Cl)ccc2Cl)cc1	human ether-à-go-go-related gene (hERG) potassium channel (human)	12.5%
O=C(NCC1CCN(C(=O)c2ccc([N+](=O)[O-])cc2)CC1)c1ccc([N+](=O)[O-])cc1	human ether-à-go-go-related gene (hERG) potassium channel (human)	-74.6%
